Let's look at some compounds and their measured viability, T/C.
- System: 253994-281-T-J1-PDC KRAS-mutant spheroids with HUVEC/MSC, viability
- Run Description: Anticancer human tumor 253994-281-T-J1-PDC patient-derived colorectal carcinoma cell line growth inhibition [KRAS2]
- Recorded Conditions: second compound 10 µM; first compound 0.316 µM; stronger effect = lower value

Compound: CCN1CCN(Cc2ccc(Nc3ncc(F)c(-c4cc(F)c5nc(C)n(C(C)C)c5c4)n3)nc2)CC1 + CNCc1ccccc1-c1csc(C(C)Nc2nc(C)nc3cc(OC)c(OC)cc23)c1
viability, T/C, %: 0.34

Compound: COc1cc2nccc(Oc3ccc(NC(=O)C4(C(=O)Nc5ccc(F)cc5)CC4)cc3)c2cc1OC + COc1cc2nc(C)nc(NC(C)c3cc(N)cc(C(F)(F)F)c3)c2cc1OC1CCOC1
viability, T/C, %: 86.5

Compound: COC(=O)c1ccc2c(C(=Nc3ccc(N(C)C(=O)CN4CCN(C)CC4)cc3)c3ccccc3)c(O)[nH]c2c1 + CNCc1ccccc1-c1csc(C(C)Nc2nc(C)nc3cc(OC)c(OC)cc23)c1
viability, T/C, %: 0.15

---

Let's look at some compounds and their measured viability, T/C.
- Tested on: 253994-281-T-J1-PDC KRAS-mutant spheroids with HUVEC/MSC, viability
- Run Description: Anticancer human tumor 253994-281-T-J1-PDC cell line growth inhibition [KRAS2];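 further: spheroids exposed to agents for seven days before readout; percent of DMSO vehicle control viability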
- Recorded Conditions: second compound 0.316 µM; first compound 0.0001 µM; stronger effect = lower value

Compound: CC(=O)Nc1cccc(-n2c(=O)n(C3CC3)c(=O)c3c(Nc4ccc(I)cc4F)n(C)c(=O)c(C)c32)c1 + COc1cc2nc(C)nc(NC(C)c3cc(N)cc(C(F)(F)F)c3)c2cc1OC1CCOC1
viability, T/C (%): 68
//
Compound: CC(=O)Nc1cccc(-n2c(=O)n(C3CC3)c(=O)c3c(Nc4ccc(I)cc4F)n(C)c(=O)c(C)c32)c1 + C=CC(=O)N1CCN(c2nc(=O)n(-c3c(C)ccnc3C(C)C)c3nc(-c4c(O)cccc4F)c(F)cc23)C(C)C1
viability, T/C (%): 124
//
Compound: CC(=O)Nc1cccc(-n2c(=O)n(C3CC3)c(=O)c3c(Nc4ccc(I)cc4F)n(C)c(=O)c(C)c32)c1 + CC1OCC2(CCN(c3cnc(Sc4ccnc(N)c4Cl)c(N)n3)CC2)C1N
viability, T/C (%): 63.1
//
Compound: CC(=O)Nc1cccc(-n2c(=O)n(C3CC3)c(=O)c3c(Nc4ccc(I)cc4F)n(C)c(=O)c(C)c32)c1 + C=CC(=O)N1CCN(c2nc(OCC3CCCN3C)nc3c2CCN(c2cccc4cccc(C)c24)C3)CC1CC#N
viability, T/C (%): 74.9
//
Compound: CC(=O)Nc1cccc(-n2c(=O)n(C3CC3)c(=O)c3c(Nc4ccc(I)cc4F)n(C)c(=O)c(C)c32)c1 + CNCc1ccccc1-c1csc(C(C)Nc2nc(C)nc3cc(OC)c(OC)cc23)c1
viability, T/C (%): 80.2

---

Let's look at some compounds and their measured viability, T/C.
- Test system: 253994-281-T-J1-PDC KRAS-mutant spheroids with HUVEC/MSC, viability
- Run Description: Anticancer human tumor 253994-281-T-J1-PDC cell line growth inhibition [KRAS2];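 further: spheroids exposed to agents for seven days before readout; percent of DMSO vehicle control viability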
- Recorded Conditions: second compound 1 µM; first compound 0.1 µM; stronger effect = lower value

Compound: O=C(c1cc(Cc2n[nH]c(=O)c3ccccc23)ccc1F)N1CCN(C(=O)C2CC2)CC1 + CC1OCC2(CCN(c3cnc(Sc4ccnc(N)c4Cl)c(N)n3)CC2)C1N
viability, T/C [%]: 94.1
--
Compound: CN(C)C/C=C/C(=O)Nc1cc2c(Nc3ccc(F)c(Cl)c3)ncnc2cc1O[C@H]1CCOC1 + CNCc1ccccc1-c1csc(C(C)Nc2nc(C)nc3cc(OC)c(OC)cc23)c1
viability, T/C [%]: 62.1
--
Compound: CC1COCCN1c1cc(-c2ccnn2C)c2ccnc(-c3ccn[nH]3)c2n1 (stereo not given) + CC1OCC2(CCN(c3cnc(Sc4ccnc(N)c4Cl)c(N)n3)CC2)C1N
viability, T/C [%]: 52.8
--
Compound: CC1(C)CCC(CN2CCN(c3ccc(C(=O)NS(=O)(=O)c4ccc(NCC5CCOCC5)c([N+](=O)[O-])c4)c(Oc4cnc5[nH]ccc5c4)c3)CC2)=C(c2ccc(Cl)cc2)C1 + C=CC(=O)N1CCN(c2nc(=O)n(-c3c(C)ccnc3C(C)C)c3nc(-c4c(O)cccc4F)c(F)cc23)C(C)C1
viability, T/C [%]: 105
--
Compound: COc1cc2nccc(Oc3ccc(NC(=O)C4(C(=O)Nc5ccc(F)cc5)CC4)cc3)c2cc1OC + COc1cc2nc(C)nc(NC(C)c3cc(N)cc(C(F)(F)F)c3)c2cc1OC1CCOC1
viability, T/C [%]: 106
